Test: Plasma protein binding by equilibrium dialysis, rat plasma
Format: in vitro ADME
Conditions: male, Sprague Dawley, rat, plasma, pH 7.4, read-out: Rat Plasma (Fu %)
quantity: fraction unbound at 5 h, 0.5 μM

>>> print(df.to_string())
                                   compound                         quantity  value_observed
0  COc1cc2c(cc1C)CC(N)C2 (centres unmarked) [MMAI, 5-methoxy-6-methyl-2-aminoindane]  fraction unbound at 5 h, 0.5 μM           > 0.5
1  COc1ccc2c(c1)CC(N)C2 (centres unmarked) [MEAI, 5-methoxy-2-aminoindane]  fraction unbound at 5 h, 0.5 μM           > 0.5

---

Assay: Intrinsic clearance in human liver microsomes
Assay type: in vitro ADME
Conditions: pH 7.4, read-out: Cl (μL/min/mg protein) - Human Microsomes
Recorded microsomal CLint at 0.5 μM values for a group of molecules are listed next.
quantity: microsomal CLint at 0.5 μM (µL/min/mg)

>>> df
                                   molecule                    quantity  value_observed
0   COc1ccc2c(c1)CC(N)C2 (centres unmarked)  microsomal CLint at 0.5 μM             137
1  COc1cc2c(cc1C)CC(N)C2 (centres unmarked)  microsomal CLint at 0.5 μM            46.7
2  COC(=O)c1ccc2c(c1)CC(N)C2 (centres unmarked) [CMP-405, 2-aminoindane-5-methylcarboxylate]  microsomal CLint at 0.5 μM             137
3  COC(=O)COc1ccc2c(c1)CC(N)C2 (centres unmarked)  microsomal CLint at 0.5 μM             758
4  COC(=O)c1cc2c(cc1OC)CC(N)C2 (centres unmarked)  microsomal CLint at 0.5 μM            87.2

---

Target: CYP1A2 (Homo sapiens)
Construct: host or cells: recombinant microsomes
Sequence (P05177 whole entry): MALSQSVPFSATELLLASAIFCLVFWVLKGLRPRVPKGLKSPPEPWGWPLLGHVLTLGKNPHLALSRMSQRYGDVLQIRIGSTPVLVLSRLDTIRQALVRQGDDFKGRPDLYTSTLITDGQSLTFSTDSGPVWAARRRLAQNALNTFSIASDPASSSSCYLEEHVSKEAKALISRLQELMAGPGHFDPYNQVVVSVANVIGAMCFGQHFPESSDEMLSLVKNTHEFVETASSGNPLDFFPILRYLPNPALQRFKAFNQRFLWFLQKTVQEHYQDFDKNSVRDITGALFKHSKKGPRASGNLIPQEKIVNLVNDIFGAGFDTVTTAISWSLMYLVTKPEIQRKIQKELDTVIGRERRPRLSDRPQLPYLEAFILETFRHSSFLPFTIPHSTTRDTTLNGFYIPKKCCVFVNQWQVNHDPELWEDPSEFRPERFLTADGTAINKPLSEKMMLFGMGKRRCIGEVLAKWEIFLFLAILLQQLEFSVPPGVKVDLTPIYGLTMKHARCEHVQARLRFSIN
Assay: CYP450 inhibition, fluorescent probe substrate
Assay type: in vitro ADME
pIC50: −log10 of the molar value.
quantity: pIC50

In [3]: df
Out[3]:
                                   compound  relation  value_observed
0   COc1ccc2c(c1)CC(N)C2 (centres unmarked)         <            4.30
1  COc1cc2c(cc1C)CC(N)C2 (centres unmarked)         =            5.68

---

Test system: 5-HT release in rat synaptosomes
Assay: Serotonin release assay in rat cortex synaptosomes
Format: biochemical
Conditions: ratio of 5-HT and DA release potency, rat synaptosomes
quantity: SERT/DAT Release Ratio

                                   compound                quantity  value_observed
0  COC(=O)CCc1ccc2c(c1)CC(N)C2 (stereo not shown)  SERT/DAT Release Ratio           <0.25
1  COC(=O)Cc1ccc2c(c1)CC(N)C2 (stereo not shown)  SERT/DAT Release Ratio            >2.0
2  COc1cc2c(cc1C)CC(N)C2 (stereo not shown)  SERT/DAT Release Ratio             575
3  COC(=O)COc1ccc2c(c1)CC(N)C2 (stereo not shown)  SERT/DAT Release Ratio             >10

---

Target: CYP2C9 (Homo sapiens, UniProt P11712)
Construct: host or cells: recombinant microsomes
Sequence (P11712 whole entry): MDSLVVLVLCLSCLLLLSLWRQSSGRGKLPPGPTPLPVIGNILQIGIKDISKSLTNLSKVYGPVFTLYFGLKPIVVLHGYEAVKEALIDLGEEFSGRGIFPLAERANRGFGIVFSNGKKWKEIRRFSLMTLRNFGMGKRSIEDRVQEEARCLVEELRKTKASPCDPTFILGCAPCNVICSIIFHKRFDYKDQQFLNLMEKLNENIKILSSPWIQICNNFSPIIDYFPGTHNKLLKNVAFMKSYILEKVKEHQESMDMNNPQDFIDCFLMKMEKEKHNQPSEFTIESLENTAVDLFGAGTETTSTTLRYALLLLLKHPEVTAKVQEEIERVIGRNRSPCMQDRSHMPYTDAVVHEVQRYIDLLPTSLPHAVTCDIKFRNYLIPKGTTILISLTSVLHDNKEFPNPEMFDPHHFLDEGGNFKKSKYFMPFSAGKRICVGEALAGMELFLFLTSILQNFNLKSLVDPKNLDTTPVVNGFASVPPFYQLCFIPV
Assay: CYP450 inhibition, fluorescent probe substrate
Type: in vitro ADME
pIC50: −log10 of the molar value.
quantity: pIC50

In [3]: df
Out[3]:
                                   molecule  quantity  relation  value_observed
0  COc1cc2c(cc1C)CC(N)C2 (centres unmarked)     pIC50         =            4.45
1   COc1ccc2c(c1)CC(N)C2 (centres unmarked)     pIC50         <            4.30

---

Experiment: In vivo pharmacokinetics and brain penetration in rats after IV administration
Details: brain and plasma, 0.5 mg/kg; rat, IV, 2 hours post-administration; read-out: brain to plasma ratio
Recorded Kp at 2 h values for a group of compounds are listed next.
quantity: Kp at 2 h

                                   compound  value_observed
0  COC(=O)c1ccc2c(c1)CC(N)C2 (centres unmarked) [CMP-405, 2-aminoindane-5-methylcarboxylate]            2.12
1  COc1ccc2c(c1)CC(N)C2 (centres unmarked) [MEAI, 5-methoxy-2-aminoindane]            2.21

---

Recorded AUC(0-t) values for a group of compounds are listed next.
Assay: In vivo pharmacokinetics and brain penetration in rats after IV administration
Conditions: plasma; rat, IV, 0.5 mg/kg
quantity: AUC(0-t)

>>> df
                                   compound  value_observed
0  COC(=O)c1ccc2c(c1)CC(N)C2 (centres unmarked) [CMP-405, 2-aminoindane-5-methylcarboxylate]     330 ng·h/mL
1  COc1ccc2c(c1)CC(N)C2 (centres unmarked) [MEAI, 5-methoxy-2-aminoindane]     773 ng·h/mL

---

Recorded Vd values for a group of compounds are listed next.
Test: In vivo pharmacokinetics and brain penetration in rats after IV administration
Conditions: plasma; rat, IV, 0.5 mg/kg; read-out: Vss
quantity: Vd (L/kg)

                                   compound  value_observed
0  COc1ccc2c(c1)CC(N)C2 (centres unmarked) [MEAI, 5-methoxy-2-aminoindane]           0.376
1  COC(=O)c1ccc2c(c1)CC(N)C2 (centres unmarked) [CMP-405, 2-aminoindane-5-methylcarboxylate]           0.602

---

Assay: Plasma protein binding by equilibrium dialysis, human plasma
Assay type: in vitro ADME
Conditions: human, plasma, pH 7.4, read-out: Human Plasma (Fu %)
Protocol: Methods: Plasma protein binding and blood tissue binding of test items (0.5 μM) was determined using biological samples from male Sprague Dawley (SD) rats and humans. […] Dexamethasone was used as a control compound for lung tissue binding. […] Samples were then injected onto an HPLC MS/MS or UPLC MS/MS system. In order to control the integrity of the membrane after the dialysis process, the presence of protein was assessed in the buffer compartment. […]
Recorded fraction unbound at 5 h, 0.5 μM values for a group of compounds are listed next.
quantity: fraction unbound at 5 h, 0.5 μM

>>> df
                                   compound  value_observed
0  COc1ccc2c(c1)CC(N)C2 (stereo not shown) [MEAI, 5-methoxy-2-aminoindane]           > 0.5
1  COC(=O)COc1ccc2c(c1)CC(N)C2 (stereo not shown) [CMP-402]           > 0.5
2  COC(=O)c1cc2c(cc1OC)CC(N)C2 (stereo not shown) [CMP-401]           > 0.5
3  COc1cc2c(cc1C)CC(N)C2 (stereo not shown) [MMAI, 5-methoxy-6-methyl-2-aminoindane]           > 0.5
